All figures here come from paper PMC545800.

# TARGET_DESC: T1, tetratricopeptide repeat (TPR) domain of S. cerevisiae PEX5 (Gal4pBD-TPR, plasmid pAH987) (S. cerevisiae)
# T1 sequence (P35056 whole entry, looked up): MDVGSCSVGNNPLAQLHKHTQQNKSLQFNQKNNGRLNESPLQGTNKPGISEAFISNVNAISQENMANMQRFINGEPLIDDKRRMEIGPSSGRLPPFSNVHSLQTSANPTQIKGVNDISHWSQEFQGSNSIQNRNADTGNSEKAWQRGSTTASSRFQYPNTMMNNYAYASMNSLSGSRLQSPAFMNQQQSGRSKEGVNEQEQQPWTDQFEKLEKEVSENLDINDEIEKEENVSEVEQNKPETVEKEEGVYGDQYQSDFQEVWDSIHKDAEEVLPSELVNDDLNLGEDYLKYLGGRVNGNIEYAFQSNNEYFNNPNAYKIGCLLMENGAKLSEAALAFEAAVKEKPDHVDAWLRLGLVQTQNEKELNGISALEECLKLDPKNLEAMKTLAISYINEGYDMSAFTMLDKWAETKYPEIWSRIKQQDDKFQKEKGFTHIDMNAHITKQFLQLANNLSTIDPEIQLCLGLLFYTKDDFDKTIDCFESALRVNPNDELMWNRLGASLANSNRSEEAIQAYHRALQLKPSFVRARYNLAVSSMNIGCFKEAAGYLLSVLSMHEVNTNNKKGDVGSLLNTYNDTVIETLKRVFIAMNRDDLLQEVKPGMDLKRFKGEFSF
# METHOD_NOTES: two-hybrid; yeast strain PCY3 co-transformed with Gal4pAD-16mer (pGAD.GH) and Gal4pBD-TPR of PEX5 (pAH987 yeast or hP87 human); quantitative beta-galactosidase activity, cells grown in SC-leu-trp at 30°C; lower limit of around 10 Miller Units per mg protein for a productive interaction
No end group written: not given here.
MEASURE: beta-galactosidase activity (Units/mg protein)

EEVIRKIAEGLNKAKF (not fully specified (N-terminus)) [carboxy-terminal 16-mer of Archaeoglobus fulgidus 2-nitropropane dioxygenase (Gal4pAD-16mer)]    206

A = DINNTIDAARRVFAKL (not fully specified (N-terminus)) [carboxy-terminal 16-mer of Escherichia coli glutamate-1-semialdehyde 2,1-aminomutase (Gal4pAD-16mer)]
B = FAVDQRKLEDLLAAKL [carboxy-terminal 16-mer of E. coli transaldolase A (Gal4pAD-16mer)]
C = GMGRREGHPDVGPARL [carboxy-terminal 16-mer of Methanopyrus kandleri riboflavin synthase (Gal4pAD-16mer)]
Prompt: Arrange the 3 entries by beta-galactosidase activity (Units/mg protein) so the values rise. Output spec: a listing of the labels in the requested order.
Completion: C, B, A
(C: 45, B: 164, A: 270)
